# MEASURED ON: human GPR43 (Homo sapiens (Human), UniProt O15552)
# Sequence (O15552 whole entry): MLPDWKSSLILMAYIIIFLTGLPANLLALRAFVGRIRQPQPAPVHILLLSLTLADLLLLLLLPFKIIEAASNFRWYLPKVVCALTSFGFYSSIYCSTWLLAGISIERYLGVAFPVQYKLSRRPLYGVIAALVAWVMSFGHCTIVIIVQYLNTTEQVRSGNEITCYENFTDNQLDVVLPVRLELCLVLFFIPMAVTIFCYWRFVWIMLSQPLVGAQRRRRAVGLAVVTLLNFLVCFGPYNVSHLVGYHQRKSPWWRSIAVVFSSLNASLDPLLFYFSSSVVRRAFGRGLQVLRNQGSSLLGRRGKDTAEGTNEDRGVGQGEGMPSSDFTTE
# TEST DETAILS: Ca-Flux functional assay: determination of agonist/positive allosteric modulator (PAM) activity
# SETTINGS: CHO-K1 Gα16 cells stably expressing human GPR43; compound added with EC20 sodium acetate; intracellular Ca2+ by FLIPR; does not distinguish agonist from PAM
Item-by-item account of pEC50
Convention used: pEC50 is expressed as -log10 of the molar concentration.

Qu. Name the reported pEC50 value associated with the compound Nc1[nH]c2c(OCC3CCCC3)ncnc2c1S(=O)(=O)c1ccccc1 [Example 201]
Ans. 7.30

Qu. Would you mind telling me what pEC50 value was observed for Cc1ccc(S(=O)(=O)c2c(N)[nH]c3c(C4=CCCCC4)ncnc23)cc1 [Example 42] ?
Ans. 7.49

Qu. Bench note: what pEC50 did CCN(CC1CCCCC1)c1ncnc2c(S(=O)(=O)c3ccccc3)c(N)[nH]c12 [Example 83] show?
Ans. 7.00

Qu. pEC50 lookup needed for Cc1nc(N2CCO[C@@H](C)C2)c2[nH]c(N)c(S(=O)(=O)c3ccccc3F)c2n1 [Example 218] , thanks.
Ans. 8.70

Qu. // pEC50 lookup, key: Cc1nc(N2CCO[C@@H](C)C2)c2[nH]c(N)c(S(=O)(=O)c3ccc(Br)cc3N3CCO[C@@H](C)C3)c2n1 [Example 240]
Ans. 6.90

Qu. # lookup: pEC50 of CCC(CC)Oc1nc(C)nc2c(S(=O)(=O)c3ccccc3)c(N)[nH]c12 [Example 248]
Ans. 7.66

Qu. Entry Nc1[nH]c2c(C3=CCCCC3)ncnc2c1S(=O)(=O)C1CCCCC1 [Example 50] : reported pEC50 = ?
Ans. 7.10

Qu. Data request, read-out pEC50, for C[C@@H]1CN(c2ncnc3c(S(=O)(=O)c4ccccc4)c(N)[nH]c23)CCO1 [Example 137]
Ans. 7.28

Qu. What does the record list as pEC50 for Cc1nc(N2CCOC(C)(C(F)(F)F)C2)c2[nH]c(N)c(S(=O)(=O)c3ccccc3F)c2n1 (stereo not drawn) [Example 303] ?
Ans. 8.52
